Data origin: ChEMBL document CHEMBL4130359

- method: AUC (0 to 24 hrs) in […] model at 10 mg/kg, po qd measured on day 1 post dose
- Type: ADME, organism-based
- Parameters: dose 10 mg/kg, time < 24 hr, route oral
- setup_conditions: in vivo
experimental_readout: AUC(0-t) at 24 h (ng·h/mL)

• CN1CC[C@@H](N2C(=O)S/C(=C\c3ccc4c(cnn4Cc4ccc(Cl)cc4C(F)(F)F)c3)C2=O)[C@H](F)C1 = 3940

---

- method: Tmax in ob/ob mouse at 18 mg/kg administered via oral gavage by LC-MS analysis
- Format: ADME, organism-based
- setup_conditions: in vivo
experimental_readout: Tmax

- CN1CC[C@@H](N2C(=O)S/C(=C\c3ccc4c(cnn4Cc4ccc(Cl)cc4C(F)(F)F)c3)C2=O)[C@H](F)C1: 2 h

---

- measured_on: Voltage-gated inwardly rectifying potassium channel KCNH2 (Homo sapiens)
- Sequence (Q12809 whole entry): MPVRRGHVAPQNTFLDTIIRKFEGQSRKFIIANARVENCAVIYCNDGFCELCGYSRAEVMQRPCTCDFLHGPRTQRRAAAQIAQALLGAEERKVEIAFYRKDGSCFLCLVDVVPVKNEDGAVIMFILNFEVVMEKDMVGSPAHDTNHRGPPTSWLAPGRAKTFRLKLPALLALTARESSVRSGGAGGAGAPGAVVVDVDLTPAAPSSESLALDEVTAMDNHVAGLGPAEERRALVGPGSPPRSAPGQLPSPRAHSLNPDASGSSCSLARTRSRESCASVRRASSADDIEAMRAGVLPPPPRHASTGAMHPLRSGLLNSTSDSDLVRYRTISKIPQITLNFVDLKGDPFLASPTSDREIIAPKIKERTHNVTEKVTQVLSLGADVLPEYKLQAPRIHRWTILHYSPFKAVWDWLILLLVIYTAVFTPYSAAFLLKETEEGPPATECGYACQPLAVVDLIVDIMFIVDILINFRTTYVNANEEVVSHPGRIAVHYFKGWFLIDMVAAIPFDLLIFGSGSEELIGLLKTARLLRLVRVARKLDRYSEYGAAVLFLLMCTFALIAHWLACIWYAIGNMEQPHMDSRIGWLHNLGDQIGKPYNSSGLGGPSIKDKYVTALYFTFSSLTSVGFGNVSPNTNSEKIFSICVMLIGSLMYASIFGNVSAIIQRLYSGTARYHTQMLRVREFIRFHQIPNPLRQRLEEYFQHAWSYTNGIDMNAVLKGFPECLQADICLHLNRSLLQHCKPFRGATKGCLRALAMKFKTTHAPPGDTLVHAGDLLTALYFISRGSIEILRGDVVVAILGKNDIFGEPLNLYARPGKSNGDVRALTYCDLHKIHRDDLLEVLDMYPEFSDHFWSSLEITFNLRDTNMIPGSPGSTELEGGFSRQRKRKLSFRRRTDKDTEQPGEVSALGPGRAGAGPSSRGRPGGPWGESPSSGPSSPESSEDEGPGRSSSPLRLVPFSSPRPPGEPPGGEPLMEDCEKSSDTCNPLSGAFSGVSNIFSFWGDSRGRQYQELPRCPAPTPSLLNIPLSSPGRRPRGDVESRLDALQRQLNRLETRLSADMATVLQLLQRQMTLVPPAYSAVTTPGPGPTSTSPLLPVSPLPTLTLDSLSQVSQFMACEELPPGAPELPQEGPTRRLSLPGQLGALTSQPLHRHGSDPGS
pIC50: −log10 of the molar value.
experimental_readout: pIC50

* O=C1S/C(=C\c2ccc3c(cnn3Cc3ccc(Cl)cc3C(F)(F)F)c2)C(=O)N1[C@@H]1CCNC[C@H]1F (relative stereo) | 4.68

---

- method: AUC (0 to 24 hrs) in Zucker rat sub-chronic fa/fa prediabetic model at 50 mg/kg, po qd measured on day 1 post dose
- Assay type: ADME, organism-based
- Set-up: dose 50 mg/kg, time < 24 hr, route oral
- setup_conditions: in vivo
experimental_readout: AUC(0-t) at 24 h (ng·h/mL)

• CN1CC[C@@H](N2C(=O)S/C(=C\c3ccc4c(cnn4Cc4ccc(Cl)cc4C(F)(F)F)c3)C2=O)[C@H](F)C1 = 92000

---

- method: Tmax in Sprague-Dawley rat at 10 mg/kg administered via oral gavage by LC-MS analysis
- Assay type: ADME, organism-based
- setup_conditions: in vivo
experimental_readout: Tmax (h)

- CN1CC[C@@H](N2C(=O)S/C(=C\c3ccc4c(cnn4Cc4ccc(Cl)cc4C(F)(F)F)c3)C2=O)[C@H](F)C1: 1.5

---

- method: AUC (0 to 24 hrs) in Zucker rat sub-chronic fa/fa prediabetic model at 10 mg/kg, po qd for 26 days measured on day 26 post last dose
- Type: ADME, organism-based
- Parameters: dose 10 mg/kg, time < 24 hr, route oral
- setup_conditions: in vivo
experimental_readout: AUC at 24 h (ng·h/mL)

- CN1CC[C@@H](N2C(=O)S/C(=C\c3ccc4c(cnn4Cc4ccc(Cl)cc4C(F)(F)F)c3)C2=O)[C@H](F)C1: 23900

---

- method: Cmax in Zucker rat sub-chronic fa/fa prediabetic model at 1 mg/kg, po qd measured on day 1 post dose
- Format: ADME, organism-based
- Set-up: dose 1 mg/kg, route oral
- setup_conditions: in vivo
experimental_readout: Cmax

• CN1CC[C@@H](N2C(=O)S/C(=C\c3ccc4c(cnn4Cc4ccc(Cl)cc4C(F)(F)F)c3)C2=O)[C@H](F)C1 = 262 ng/mL

---

- measured_on: Steroid hormone receptor ERR2 (Homo sapiens)
- Sequence (O95718 whole entry, the tested form may be a part): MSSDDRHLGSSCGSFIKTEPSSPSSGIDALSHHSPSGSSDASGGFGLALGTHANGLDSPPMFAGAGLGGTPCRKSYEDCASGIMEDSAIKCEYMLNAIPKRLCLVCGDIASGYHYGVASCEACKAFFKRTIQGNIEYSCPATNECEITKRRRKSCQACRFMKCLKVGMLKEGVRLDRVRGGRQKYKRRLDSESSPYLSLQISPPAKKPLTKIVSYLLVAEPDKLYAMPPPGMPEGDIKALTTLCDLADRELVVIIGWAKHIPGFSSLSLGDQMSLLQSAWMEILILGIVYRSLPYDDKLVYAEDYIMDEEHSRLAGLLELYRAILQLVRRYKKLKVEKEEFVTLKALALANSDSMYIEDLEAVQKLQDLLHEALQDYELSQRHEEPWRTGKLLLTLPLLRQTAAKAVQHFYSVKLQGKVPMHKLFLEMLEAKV
- method: Antagonist activity at recombinant GST-tagged human ERRbeta LBD assessed as inhibition of fluorescein-labeled coactivator peptide recruitment preincubated with enzyme followed by coactivator addition by LanthaScreen TR-FRET assay
pIC50: −log10 of the molar value.
experimental_readout: pIC50

- CCC(=C(c1ccc(O)cc1)c1ccc(OCCN(C)C)cc1)c1ccccc1: 6.05
